Attribution: paper PMC11108815

test: Stability test of QC samples; format: physicochemical, rat; details: Store at 4 °C for 24 h; medium concentration QC sample in rat plasma
measurementType: Stability, Accuracy (RE, %)
Write it as a number; the unit % goes unstated.

query: Report measured Stability, Accuracy (RE, %); entry is `O=C(/C=C/c1ccc(O)c(O)c1/C=C/c1ccc(O)c(O)c1)O[C@H](Cc1ccc(O)c(O)c1)C(=O)O`
result: 11.49

query: Report measured Stability, Accuracy (RE, %); entry is `O=C(/C=C/c1ccc(O)c2oc(-c3ccc(O)c(O)c3)cc12)O[C@H](Cc1ccc(O)c(O)c1)C(=O)O`
result: −3.01

query: Report measured Stability, Accuracy (RE, %); entry is `O=C(/C=C/c1ccc(O)c(O)c1)O[C@H](Cc1ccc(O)c(O)c1)C(=O)O`
result: 0.63

query: Report measured Stability, Accuracy (RE, %); entry is `O=C(/C=C/c1ccc(O)c2c1[C@H](C(=O)O)[C@@H](c1ccc(O)c(O)c1)O2)O[C@H](Cc1ccc(O)c(O)c1)C(=O)O`
result: 6.58

query: Report measured Stability, Accuracy (RE, %); entry is `O=C(O)[C@H](O)Cc1ccc(O)c(O)c1`
result: 5.99

query: Report measured Stability, Accuracy (RE, %); entry is `C[C@@H]1O[C@@H](OC[C@H]2O[C@@H](Oc3c(-c4ccc(O)c(O)c4)oc4cc(O)cc(O)c4c3=O)[C@H](O)[C@@H](O)[C@@H]2O)[C@H](O)[C@H](O)[C@H]1O`
result: 7.93

query: Report measured Stability, Accuracy (RE, %); entry is `O=C(O)/C=C/c1ccc(O)c(O)c1`
result: −2.07

* * *

Tmax values, listed per item
assay: Pharmacokinetics in rat plasma; type: in vivo, Wistar rats; details: Wistar, rat, plasma, po, 100 mg/kg, Tmax, control group, after oral administration of FS or FT

Example cases with answers are listed next.
O=C(/C=C/c1ccc(O)c2c1[C@H](C(=O)O)[C@@H](c1ccc(O)c(O)c1)O2)O[C@H](Cc1ccc(O)c(O)c1)C(=O)O [Lithospermic acid] = < 23.4 min
O=C(/C=C/c1ccc(O)c(O)c1/C=C/c1ccc(O)c(O)c1)O[C@H](Cc1ccc(O)c(O)c1)C(=O)O [Salvianolic acid A] = > 28.2 min
O=C(O)/C=C/c1ccc(O)c(O)c1 [Caffeic acid] = > 28.2 min
O=C(/C=C/c1ccc(O)c(O)c1)O[C@H](Cc1ccc(O)c(O)c1)C(=O)O [Rosmarinic acid] = < 23.4 min

query: Report measured Tmax; entry is C[C@@H]1O[C@@H](OC[C@H]2O[C@@H](Oc3c(-c4ccc(O)c(O)c4)oc4cc(O)cc(O)c4c3=O)[C@H](O)[C@@H](O)[C@@H]2O)[C@H](O)[C@H](O)[C@H]1O [Rutin]
result: > 28.2 min

* * *

Stability, Accuracy (RE, %) values, listed per item
test: Stability test of QC samples; type: physicochemical, rat; settings: Three freeze-thaw cycles; low concentration QC sample in rat plasma
Write it as a number; the unit % goes unstated.

O=C(O)/C=C/c1ccc(O)c(O)c1 [Caffeic acid] = 3.68
O=C(/C=C/c1ccc(O)c2c1[C@H](C(=O)O)[C@@H](c1ccc(O)c(O)c1)O2)O[C@H](Cc1ccc(O)c(O)c1)C(=O)O [Lithospermic acid] = 6.56
O=C(O)[C@H](O)Cc1ccc(O)c(O)c1 [Danshensu] = 2.54
O=C(/C=C/c1ccc(O)c(O)c1/C=C/c1ccc(O)c(O)c1)O[C@H](Cc1ccc(O)c(O)c1)C(=O)O [Salvianolic acid A] = 1.08
C[C@@H]1O[C@@H](OC[C@H]2O[C@@H](Oc3c(-c4ccc(O)c(O)c4)oc4cc(O)cc(O)c4c3=O)[C@H](O)[C@@H](O)[C@@H]2O)[C@H](O)[C@H](O)[C@H]1O [Rutin] = −8.01

query: Report measured Stability, Accuracy (RE, %); entry is O=C(/C=C/c1ccc(O)c(O)c1)O[C@H](Cc1ccc(O)c(O)c1)C(=O)O [Rosmarinic acid]
result: 1.82

query: Report measured Stability, Accuracy (RE, %); entry is O=C(/C=C/c1ccc(O)c2oc(-c3ccc(O)c(O)c3)cc12)O[C@H](Cc1ccc(O)c(O)c1)C(=O)O [Salvianolic acid C]
result: −5.18
